Experiment: Steady-state plasma concentrations of polymyxin B (total of B1, B2, B1-Ile) by LC-MS/MS
Format: in vivo
Conditions: human, iv, 50 mg, patient ID 6, TIME 50, DOSE 50 every 12 from 0 to 48, DUR 1, WT 60, CCR 81.34, ALB 36.6, APACHE 18, single sample, read-out: OUT (observed polymyxin B plasma concentration)
Text: We gather data from critically ill patients (≥18 years old) who were given intravenous drip polymyxin B treatment with blood concentration monitoring at the hospital from November 2021 to September 2022. […] According to previous studies, total polymyxin B1, polymyxin B2, and polymyxin B1-Ile concentrations in human blood plasma were quantified using LC-MS/MS ([Meng et al., 2016]; [Hee et al., 2017]). […]
Positions of bridges follow the written chain, without caps; N, C: chain ends. Non-standard residues stand in square brackets, D forms with d. Residues, ends and D or L forms follow the SMILES beside them. *: point of attachment. X1 = CC[C@H](C)CCCCC(=O)*; Dab = NCC[C@H](N)C(=O)O
measured.metric: level at 50 h (ng/mL)
Your answer should be a plain number; it is taken to be in ng/mL.

Recorded result, CC[C@H](C)CCCCC(=O)N[C@@H](CCN)C(=O)N[C@H](C(=O)N[C@@H](CCN)C(=O)N[C@H]1CCNC(=O)[C@H]([C@@H](C)O)NC(=O)[C@H](CCN)NC(=O)[C@H](CCN)NC(=O)[C@H](CC(C)C)NC(=O)[C@@H](Cc2ccccc2)NC(=O)[C@H](CCN)NC1=O)[C@@H](C)O [polymyxin B] (X1-[Dab]T[Dab][Dab][Dab][dF]L[Dab][Dab]T; lactam 4-C) , level at 50 h: 4480

----------
Assay: Steady-state plasma concentrations of polymyxin B (total of B1, B2, B1-Ile) by LC-MS/MS
Type: in vivo
Settings: human, iv, 75 mg, patient ID 22, TIME 222, DOSE 75 every 12 from 0 (ADDL 18), DUR 1, WT 60, CCR 155.65, ALB 24.3, APACHE 30, single measurement, read-out: OUT (observed polymyxin B plasma concentration)
Positions of bridges follow the written chain, without caps; N, C: chain ends. Non-standard residues stand in square brackets, D forms with d. Residues, ends and D or L forms follow the SMILES beside them. *: point of attachment. X1 = CC[C@H](C)CCCCC(=O)*; Dab = NCC[C@H](N)C(=O)O
measured.metric: level at 222 h (ng/mL)
Give just the number in ng/mL; leave the unit off.

Looking up CC[C@H](C)CCCCC(=O)N[C@@H](CCN)C(=O)N[C@H](C(=O)N[C@@H](CCN)C(=O)N[C@H]1CCNC(=O)[C@H]([C@@H](C)O)NC(=O)[C@H](CCN)NC(=O)[C@H](CCN)NC(=O)[C@H](CC(C)C)NC(=O)[C@@H](Cc2ccccc2)NC(=O)[C@H](CCN)NC1=O)[C@@H](C)O [polymyxin B] (X1-[Dab]T[Dab][Dab][Dab][dF]L[Dab][Dab]T; lactam 4-C) , I see its level at 222 h listed as 2060

----------
Experiment: Steady-state plasma concentrations of polymyxin B (total of B1, B2, B1-Ile) by LC-MS/MS
Type: in vivo
Conditions: human, iv, patient ID 14, TIME 51.8, DOSE 100 at 0, 50 at 12, 24, 36, 50.8, DUR 1, WT 60, CCR 111.4, ALB 25.4, APACHE 25, single measurement, read-out: OUT (observed polymyxin B plasma concentration)
Positions of bridges follow the written chain, without caps; N, C: chain ends. Non-standard residues stand in square brackets, D forms with d. Residues, ends and D or L forms follow the SMILES beside them. *: point of attachment. X1 = CC[C@H](C)CCCCC(=O)*; Dab = NCC[C@H](N)C(=O)O
measured.metric: level at 51.8 h (ng/mL)
The response must be a number in ng/mL with no trailing unit.

Form field level at 51.8 h, entry CC[C@H](C)CCCCC(=O)N[C@@H](CCN)C(=O)N[C@H](C(=O)N[C@@H](CCN)C(=O)N[C@H]1CCNC(=O)[C@H]([C@@H](C)O)NC(=O)[C@H](CCN)NC(=O)[C@H](CCN)NC(=O)[C@H](CC(C)C)NC(=O)[C@@H](Cc2ccccc2)NC(=O)[C@H](CCN)NC1=O)[C@@H](C)O [polymyxin B] (X1-[Dab]T[Dab][Dab][Dab][dF]L[Dab][Dab]T; lactam 4-C) : 4060

----------
Test: Population pharmacokinetic (PPK) model, non-parametric adaptive grid (Pmetrics), critically ill patients
Assay type: in vivo, human
Conditions: human, plasma, iv, final model 6, full data set, 22 critically ill patients, iv; median; read-out: CL, median (converted)
Positions of bridges follow the written chain, without caps; N, C: chain ends. Non-standard residues stand in square brackets, D forms with d. Residues, ends and D or L forms follow the SMILES beside them. *: point of attachment. X1 = CC[C@H](C)CCCCC(=O)*; Dab = NCC[C@H](N)C(=O)O
measured.metric: clearance (mL/min)
Enter your answer as a number in mL/min; do not include the unit.

Measured clearance of CC[C@H](C)CCCCC(=O)N[C@@H](CCN)C(=O)N[C@H](C(=O)N[C@@H](CCN)C(=O)N[C@H]1CCNC(=O)[C@H]([C@@H](C)O)NC(=O)[C@H](CCN)NC(=O)[C@H](CCN)NC(=O)[C@H](CC(C)C)NC(=O)[C@@H](Cc2ccccc2)NC(=O)[C@H](CCN)NC1=O)[C@@H](C)O [polymyxin B] (X1-[Dab]T[Dab][Dab][Dab][dF]L[Dab][Dab]T; lactam 4-C) : 20.3

----------
Experiment: Steady-state plasma concentrations of polymyxin B (total of B1, B2, B1-Ile) by LC-MS/MS
Assay type: in vivo
Settings: human, iv, patient ID 19, TIME 60, DOSE 100 at 0 then 50 every 12 from 12 (ADDL 3), DUR 1, WT 60, CCR 35.69, ALB 25.6, APACHE 19, single measurement, read-out: OUT (observed polymyxin B plasma concentration)
Positions of bridges follow the written chain, without caps; N, C: chain ends. Non-standard residues stand in square brackets, D forms with d. Residues, ends and D or L forms follow the SMILES beside them. *: point of attachment. X1 = CC[C@H](C)CCCCC(=O)*; Dab = NCC[C@H](N)C(=O)O
measured.metric: level at 60 h (ng/mL)
Please give a number only; it is taken to be in ng/mL.

GET /value?item= CC[C@H](C)CCCCC(=O)N[C@@H](CCN)C(=O)N[C@H](C(=O)N[C@@H](CCN)C(=O)N[C@H]1CCNC(=O)[C@H]([C@@H](C)O)NC(=O)[C@H](CCN)NC(=O)[C@H](CCN)NC(=O)[C@H](CC(C)C)NC(=O)[C@@H](Cc2ccccc2)NC(=O)[C@H](CCN)NC1=O)[C@@H](C)O [polymyxin B] (X1-[Dab]T[Dab][Dab][Dab][dF]L[Dab][Dab]T; lactam 4-C) &field=level at 60 h returns 1300

----------
Assay: Steady-state plasma concentrations of polymyxin B (total of B1, B2, B1-Ile) by LC-MS/MS
Format: in vivo
Details: human, iv, patient ID 15, TIME 72.66, DOSE 100 at 0, 50 at 12, 100 at 24, 75 at 36, 48, 60, WT 50, CCR 35.85, ALB 29.5, APACHE 39, single measurement, read-out: OUT (observed polymyxin B plasma concentration)
Positions of bridges follow the written chain, without caps; N, C: chain ends. Non-standard residues stand in square brackets, D forms with d. Residues, ends and D or L forms follow the SMILES beside them. *: point of attachment. X1 = CC[C@H](C)CCCCC(=O)*; Dab = NCC[C@H](N)C(=O)O
measured.metric: level at 72.66 h (ng/mL)
All answers are understood in ng/mL, so give the number only.

Looking up CC[C@H](C)CCCCC(=O)N[C@@H](CCN)C(=O)N[C@H](C(=O)N[C@@H](CCN)C(=O)N[C@H]1CCNC(=O)[C@H]([C@@H](C)O)NC(=O)[C@H](CCN)NC(=O)[C@H](CCN)NC(=O)[C@H](CC(C)C)NC(=O)[C@@H](Cc2ccccc2)NC(=O)[C@H](CCN)NC1=O)[C@@H](C)O [polymyxin B] (X1-[Dab]T[Dab][Dab][Dab][dF]L[Dab][Dab]T; lactam 4-C) , I see its level at 72.66 h listed as 3110

----------
Assay: Steady-state plasma concentrations of polymyxin B (total of B1, B2, B1-Ile) by LC-MS/MS
Assay type: in vivo
Conditions: human, iv, 75 mg, patient ID 22, TIME 217, DOSE 75 every 12 from 0 (ADDL 18), DUR 1, WT 60, CCR 155.65, ALB 24.3, APACHE 30, single measurement, read-out: OUT (observed polymyxin B plasma concentration)
Positions of bridges follow the written chain, without caps; N, C: chain ends. Non-standard residues stand in square brackets, D forms with d. Residues, ends and D or L forms follow the SMILES beside them. *: point of attachment. X1 = CC[C@H](C)CCCCC(=O)*; Dab = NCC[C@H](N)C(=O)O
measured.metric: level at 217 h
Mention the unit after the number when you answer.

Record summary for CC[C@H](C)CCCCC(=O)N[C@@H](CCN)C(=O)N[C@H](C(=O)N[C@@H](CCN)C(=O)N[C@H]1CCNC(=O)[C@H]([C@@H](C)O)NC(=O)[C@H](CCN)NC(=O)[C@H](CCN)NC(=O)[C@H](CC(C)C)NC(=O)[C@@H](Cc2ccccc2)NC(=O)[C@H](CCN)NC1=O)[C@@H](C)O [polymyxin B] (X1-[Dab]T[Dab][Dab][Dab][dF]L[Dab][Dab]T; lactam 4-C) : reported level at 217 h = 3620 ng/mL

The origin of these recorded values is paper PMC10090446.
